Tgt: D(3) dopamine receptor (Homo sapiens, UniProt P35462)
Sequence (P35462 whole entry): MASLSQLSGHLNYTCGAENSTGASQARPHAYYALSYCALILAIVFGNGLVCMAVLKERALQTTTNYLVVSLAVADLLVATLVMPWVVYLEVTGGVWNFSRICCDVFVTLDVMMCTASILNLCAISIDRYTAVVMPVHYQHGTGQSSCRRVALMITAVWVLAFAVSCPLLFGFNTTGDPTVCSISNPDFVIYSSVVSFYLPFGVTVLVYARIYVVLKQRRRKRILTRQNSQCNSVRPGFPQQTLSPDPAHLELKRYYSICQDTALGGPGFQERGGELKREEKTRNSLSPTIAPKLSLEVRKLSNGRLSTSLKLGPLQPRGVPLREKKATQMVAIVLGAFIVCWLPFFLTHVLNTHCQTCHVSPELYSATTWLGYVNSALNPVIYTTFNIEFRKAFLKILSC
Test Summary: biochemical
Description: Inhibition of [3H]YM-09151-2 binding to human Dopamine D3 receptor expressed in CHO cells
Measured Metric: Ki (nM)

Example entries and their recorded answers appear below.
The compound listed as O=C(NCCCCN1CCN(c2cccc(Cl)c2Cl)CC1)c1cccc2c1-c1ccccc1C2=O has a reported Ki of 4.9

The compound listed as O=C(NC/C=C/CN1CCN(c2cccc(Cl)c2Cl)CC1)c1ccc2c(c1)Cc1ccccc1-2 has a reported Ki of 5

The compound listed as O=C(NCCCCN1CCN(c2cccc(Cl)c2Cl)CC1)c1ccc(I)cc1 has a reported Ki of 3

The compound listed as O=C(NC/C=C/CN1CCN(c2cccc(Cl)c2Cl)CC1)c1ccc(O)cc1 has a reported Ki of 1.72

I: O=C(NC/C=C/CN1CCN(c2cccc(Cl)c2Cl)CC1)c1ccc(I)cc1
II: O=C(NCCCCN1CCN(c2cccc(Cl)c2Cl)CC1)c1ccc(-c2ccccn2)cc1
III: O=C(NC/C=C/CN1CCN(c2cccc(Cl)c2Cl)CC1)c1ccc([N+](=O)[O-])cc1
IV: COc1ccc(C(=O)NC/C=C/CN2CCN(c3cccc(Cl)c3Cl)CC2)cc1
Hey, quick one: sort these by Ki, largest value first please. Use the labels to give the requested order.
IV, I, III, II
(IV: 12 nM, I: 6.6 nM, III: 3.5 nM, II: 2.33 nM)
